Each record here notes measured OX2/OX1.
- EXPERIMENTAL TARGET: human OX1 receptor (Homo sapiens)
- Sequence (O43613 whole entry): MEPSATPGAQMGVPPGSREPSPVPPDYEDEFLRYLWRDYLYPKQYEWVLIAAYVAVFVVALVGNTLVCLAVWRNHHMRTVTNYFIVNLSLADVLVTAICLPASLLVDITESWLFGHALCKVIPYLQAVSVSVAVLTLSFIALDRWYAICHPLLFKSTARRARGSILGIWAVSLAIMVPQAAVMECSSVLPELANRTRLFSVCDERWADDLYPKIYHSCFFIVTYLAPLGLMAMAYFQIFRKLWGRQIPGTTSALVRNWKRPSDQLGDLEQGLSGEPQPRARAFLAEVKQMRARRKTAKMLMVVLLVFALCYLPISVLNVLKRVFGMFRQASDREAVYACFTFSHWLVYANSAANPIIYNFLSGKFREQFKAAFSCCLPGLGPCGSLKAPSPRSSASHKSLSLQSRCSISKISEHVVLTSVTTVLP
- TEST NAME: Calcium mobilization Ke assay, OX1
- Format: cell-based
- CONDITION SET: ratio of Ke values OX2/OX1
MEASURE: OX2/OX1

>  <MOLECULE>
CCCOc1cc2c(cc1OC)CCN(CC(=O)NCc1ccccc1)C2Cc1ccc(N(C)C)cc1 (centres unmarked) [Compound 12d]

>  <VALUE MEASURED>
>58

$$$$
>  <MOLECULE>
COc1cc2c(cc1N(C)C)C(Cc1cccc(N(C)C)c1)N(CC(=O)NCc1ccccc1)CC2 (centres unmarked)

>  <VALUE MEASURED>
9.1

$$$$
>  <MOLECULE>
COc1cc2c(cc1OCC(F)(F)F)C(Cc1ccccn1)N(CC(=O)NCc1ccccc1)CC2 (centres unmarked) [Compound 19a]

>  <VALUE MEASURED>
>11

$$$$
>  <MOLECULE>
COc1ccc(CC2c3cc(N(C)C)c(OC)cc3CCN2CC(=O)NCc2cccnc2)cc1N(C)C (centres unmarked)

>  <VALUE MEASURED>
>1,760

$$$$
>  <MOLECULE>
COc1cc2c(cc1OCC(F)(F)F)C(Cc1ccc(C)c(C)c1)N(CC(=O)NCc1cccnc1)CC2 (centres unmarked) [Compound 15b]

>  <VALUE MEASURED>
67

$$$$
>  <MOLECULE>
CCCOc1cc2c(cc1OC)CCN(CC(=O)NCc1ccccc1)C2Cc1ccc2ccccc2c1 (centres unmarked) [Compound 12a]

>  <VALUE MEASURED>
>82.6

$$$$
>  <MOLECULE>
CCCOc1cc2c(cc1OC)CCN(CC(=O)NCc1ccccc1)C2Cc1cccc(N(C)C)c1 (centres unmarked) [Compound 12f]

>  <VALUE MEASURED>
>485

$$$$
>  <MOLECULE>
COc1cc2c(cc1OCC(F)(F)F)C(Cc1ccc3ccccc3c1)N(CC(=O)NCc1cccnc1)CC2 (centres unmarked) [Compound 15a]

>  <VALUE MEASURED>
59

$$$$
